# procedure.summary: in vitro
# recorded.conditions: rat, gh3-tre-luc cells, AC50 (uM) modified / 1000, Tox21_110001=Tox21_400058; viability, 1 nM T3 present, 24 h
observed.property: CC50 at 24 h

Annotate the molecule C[C@]12CCC(=O)C=C1CC[C@@H]1[C@@H]2CC[C@@]2(C)[C@H]1CC[C@]2(C)O with its measured CC50 at 24 h.
> 90 µM

###

# procedure.summary: in vitro
# recorded.conditions: rat, gh3-tre-luc cells, AC50 (uM) modified / 1000, Tox21_110001=Tox21_200923; viability, 1 nM T3 present, 24 h
observed.property: CC50 at 24 h

Annotate the molecule O=C(O)C(Cl)(Cl)Br with its measured CC50 at 24 h.
> 90 µM

###

# procedure.summary: in vitro
# recorded.conditions: rat, gh3-tre-luc cells, AC50 (uM) modified / 1000
Structures can show the parent of a compound that is named as a salt.
observed.property: CC50 at 24 h

[[record]]
compound = "CC(C)c1ccc(C(=O)NC(=N)N)cc1S(C)(=O)=O [Cariporide mesylate]"
reported_measurement = "> 70 µM"

[[record]]
compound = "Cc1cc(CCN2CCN(c3nsc4ccccc34)CC2)cc2c1NC(=O)CC2(C)C"
reported_measurement = "46.9 µM"

[[record]]
compound = "N#Cc1ccc(CC(=O)c2cccc(C(F)(F)F)c2)cc1"
reported_measurement = "> 90 µM"

[[record]]
compound = "CC(=O)N(O)CCCCCNC(=O)CCC(=O)N(O)CCCCCNC(=O)CCC(=O)N(O)CCCCCN [Deferoxamine mesylate]"
reported_measurement = "> 20 µM"

[[record]]
compound = "C1COCCN1"
reported_measurement = "> 100 µM"

[[record]]
compound = "CCC/C=C(/C=O)CC"
reported_measurement = "> 90 µM"

[[record]]
compound = "CCCCCCCC/C=C/CCCOC(C)=O [(E)-4-Tridecen-l-yl acetate]"
reported_measurement = "> 90 µM"

[[record]]
compound = "CCN(CC)c1ccc(C(=C2C=CC(=[N+](CC)CC)C=C2)c2ccc(S(=O)(=O)O)cc2S(=O)(=O)[O-])cc1"
reported_measurement = "> 90 µM"

[[record]]
compound = "O=C(O)CCC(=O)c1ccc(-c2ccccc2)cc1"
reported_measurement = "> 20 µM"

[[record]]
compound = "CCOC(=O)COc1cc(-n2ncc(C(F)(F)F)c(C)c2=O)c(F)cc1Cl"
reported_measurement = "> 90 µM"


Annotate the compound Cc1ccccc1C(=O)O with its measured CC50 at 24 h.
> 90 µM

Annotate the compound Nc1ccc(C(=O)Nc2ccccc2N)cc1 with its measured CC50 at 24 h.
14.1 µM

Annotate the compound CC(C)(C)CCCCCC(=O)O with its measured CC50 at 24 h.
> 90 µM

Annotate the compound CN1CCC(=C2c3ccccc3CC(=O)c3sccc32)CC1 with its measured CC50 at 24 h.
16 µM

###

# tested.system: TRα ligand-binding domain (Homo sapiens, UniProt P10827)
# Construct: the receptor LBDs expressed as glutathione S-transferase (GST) fusion proteins; purchased
# Sequence (P10827 163-410 isoform P10827-2 limits assumed, other chains not shown): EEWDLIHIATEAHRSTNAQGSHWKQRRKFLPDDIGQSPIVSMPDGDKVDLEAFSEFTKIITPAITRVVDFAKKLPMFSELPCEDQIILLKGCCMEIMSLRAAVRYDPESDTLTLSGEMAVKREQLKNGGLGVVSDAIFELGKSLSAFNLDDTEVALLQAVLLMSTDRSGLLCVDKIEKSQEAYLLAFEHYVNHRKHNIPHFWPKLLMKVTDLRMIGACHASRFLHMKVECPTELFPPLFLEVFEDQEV
# procedure.summary: TRa-coa LanthaScreen TR-FRET coactivator (SRC-2 peptide) recruitment, agonist (TOX21_TRA_COA_Agonist_Followup_ratio, aeid 2230)
# Assay type: biochemical
# recorded.conditions: cell-free coactivator recruitment; read-out: TRa-coa-Ag AC50
Overview of reported AC50 across a group of molecules:
Answer in nM, number only, no unit symbol.

[[record]]
molecule = "Cc1cc(NC(=O)C(=O)O)cc(C)c1Oc1ccc(O)c2c1CCC2 [CP-634384, reference compound]"
reported_measurement = 2.9


Now for a further molecule.
Annotate the molecule O=C(O)Cc1cc(I)c(Oc2cc(I)c(O)c(I)c2)c(I)c1 with its measured AC50.
248

###

# procedure.summary: in vitro
# recorded.conditions: rat, gh3-tre-luc cells, AC50 (uM) modified / 1000, Tox21_110001=Tox21_112027; viability, 1 nM T3 present, 24 h
observed.property: CC50 at 24 h

Annotate the compound COc1ccc2c3c1O[C@H]1[C@@H](O)C=C[C@H]4[C@@H](C2)NCC[C@@]341 with its measured CC50 at 24 h.
> 50 µM

###

# procedure.summary: in vitro
# recorded.conditions: rat, gh3-tre-luc cells, AC50 (uM) modified / 1000
Structures can show the parent of a compound that is named as a salt.
observed.property: CC50 at 24 h (µM)
Answer in µM, number only, no unit symbol.

[[record]]
compound = "O=C1c2c(O)ccc([N+](=O)[O-])c2C(=O)c2c([N+](=O)[O-])ccc(O)c21 [1,8-Dihydroxy-4,5-dinitroanthraquinone]"
readout_units = "µM"
reported_measurement = 8.27


Now for a further compound.
Annotate the compound CCN(CC)CCCN(c1ccccc1)C1Cc2ccccc2C1 [Aprindine hydrochloride] with its measured CC50 at 24 h.
2.3

###

Overview of reported CC50 at 24 h across a group of molecules:
# procedure.summary: in vitro
# recorded.conditions: rat, gh3-tre-luc cells, AC50 (uM) modified / 1000
Where a name gives a salt, the structure may show the parent alone.

[[record]]
molecule = "CCCCc1c(C)nc(NCC)[nH]c1=O"
reported_measurement = "> 90 µM"


Annotate the molecule Cc1cc2cc3c(C)cc(=O)oc3c(C)c2o1 with its measured CC50 at 24 h.
> 20 µM

Annotate the molecule O=Cc1ccc(Cl)cc1 with its measured CC50 at 24 h.
> 90 µM

Annotate the molecule COC(=O)[C@H]1[C@@H](OC(=O)c2ccccc2)C[C@@H]2CC[C@H]1N2C [(-)-Cocaine hydrochloride] with its measured CC50 at 24 h.
> 90 µM

Annotate the molecule O=C(O)CC(=O)O with its measured CC50 at 24 h.
> 90 µM

###

# Test system: GH3-TRE-Luc cell line
# recorded.conditions: read-out: AC50 (uM) modified / 1000; Tox21_110001=Tox21_300294; viability, 1 nM T3 present, 24 h
observed.property: CC50 (µM)
Answer in µM, number only, no unit symbol.

Annotate the compound Cc1c(C(=O)O)c(O)cc2c1C(=O)c1c(O)c([C@@H]3O[C@H](CO)[C@@H](O)[C@H](O)[C@H]3O)c(O)c(O)c1C2=O [Carminic acid] with its measured CC50.
56.2

###

# Test system: GH3-TRE-Luc cell line
# recorded.conditions: read-out: AC50 (uM) modified / 1000; Tox21_110001=Tox21_111137; viability, 1 nM T3 present, 24 h
Counter-ions that a name gives are not always drawn.
observed.property: CC50 (µM)
Answer in µM, number only, no unit symbol.

Annotate the molecule CC(C)(C)NC(=O)[C@@H]1C[C@@H]2CCCC[C@@H]2CN1C[C@@H](O)[C@H](Cc1ccccc1)NC(=O)[C@H](CC(N)=O)NC(=O)c1ccc2ccccc2n1 [Saquinavir mesylate] with its measured CC50.
9.01

###

# procedure.summary: in vitro
# recorded.conditions: rat, gh3-tre-luc cells, AC50 (uM) modified / 1000, Tox21_110001=Tox21_302005; viability, 1 nM T3 present, 24 h
observed.property: CC50 at 24 h

Annotate the compound CCOC(=O)N(C)C(=O)CSP(=S)(OCC)OCC with its measured CC50 at 24 h.
> 90 µM

###

# procedure.summary: in vitro
# recorded.conditions: rat, gh3-tre-luc cells, AC50 (uM) modified / 1000, Tox21_110001=Tox21_110122; viability, 1 nM T3 present, 24 h
observed.property: CC50 at 24 h

Annotate the compound CCCC(C)(COC(N)=O)COC(=O)NC(C)C (stereo not shown) with its measured CC50 at 24 h.
> 50 µM

###

# System: GH3-TRE-Luc cell line
# recorded.conditions: read-out: AC50 (uM) modified / 1000; Tox21_110001=Tox21_300487; viability, 1 nM T3 present, 24 h
observed.property: CC50 (µM)
Answer in µM, number only, no unit symbol.

Annotate the compound CC(C)(C)C(O)(CCc1ccc(Cl)cc1)Cn1cncn1 (stereo not shown) with its measured CC50.
57.7

###

# Test system: GH3-TRE-Luc cell line
# recorded.conditions: read-out: AC50 (uM) modified / 1000; Tox21_110001=Tox21_300566; viability, 1 nM T3 present, 24 h
observed.property: CC50

Annotate the compound CCCCCCCCn1sccc1=O [Octhilinone] with its measured CC50.
3.8 µM

###

# Tested on: GH3-TRE-Luc cell line
# recorded.conditions: read-out: AC50 (uM) modified / 1000; Tox21_110001=Tox21_201964; viability, 1 nM T3 present, 24 h
observed.property: CC50 (µM)
Answer in µM, number only, no unit symbol.

Annotate the molecule Cc1ccc(-c2cc(C(F)(F)F)nn2-c2ccc(S(N)(=O)=O)cc2)cc1 with its measured CC50.
46.6
